experiment: mitochondrial membrane potential change in A549 cells, profiling panel, cell-based, JC-1 fluorescence, basal, 24 h, 100 nL (AID 1138); details: higher = more signal;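 also: A549 lung adenocarcinoma cells under basal conditions with no added stimulus; test concentration not given here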
Catalogue of molecules with associated z-score

Solved cases (3 shown):
INSERT INTO measurements (molecule, result) VALUES
  ('COC(=O)[C@@]1(Cc2ccccc2)[C@H]2c3cc(C(=O)N4CCCC4)n(CCN4CNCC4=O)c3C[C@H]2CN1C(=O)c1ccccc1', 0.791),
  ('C[C@@H]1C=CCC(=O)OC[C@H]2O[C@@H](C=C[C@@H]2O)[C@H](C)C=CCC(=O)OC[C@H]2O[C@H]1C=C[C@@H]2O', 0.307),
  ('CN(C)CCCC[C@@H]1NC(=O)[C@@H]2C[C@H](C(=O)O)[C@H](c3ccc(O)cc3)N2C1=O', -0.0467);

[Q] // lookup z-score for O=C(NCc1ccccc1)[C@@]1(CCS(=O)(=O)c2ccccc2)COC(c2ccc(OCCCO)cc2)=N1
[A] 0.959

[Q] Return reported z-score; argument: O=C1C2C=CC(C(O)C(c3ccccc3)c3ccccc3)N(Nc3ccc([N+](=O)[O-])cc3)C2C(=O)N1c1ccccc1 (centres undefined)
[A] -0.351

---

experiment: modulators of S6 phosphorylation in cells, primary screen, cell-based, A549, cytoblot, luminescence, serum-stimulated (AID 1158); settings: A549 phospho-S6 cytoblot, 5 h, higher = more signal;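 also: serum-stimulated A549 lung adenocarcinoma cells; signal is phosphorylated S6 detected by cytoblot immunostaining with HRP secondary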
# label = yes (1) if z-score >= 0.2 else no (0)

See these solved cases before continuing.
INSERT INTO assay_data (compound, assignedlabel) VALUES
  ('O=C1OCC=C[C@H]2OC34C=CCN(Cc5ccccc5)C(=O)[C@H]3N(CCCCCO)C(=O)[C@@H]4[C@@H]12 (some centres undefined)', 'yes (1)'),
  ('O=C1O[C@@H](c2ccccc2)[C@@H](c2ccccc2)N2[C@@H](c3ccc(O)cc3)[C@]3(C(=O)Nc4ccccc43)[C@@H](C(=O)N3CCN(c4ncccn4)CC3)[C@H]12', 'yes (1)'),
  ('Cc1ccccc1C(O)C1C=CC2C(=O)N(c3ccccc3)C(=O)C2N1Nc1ccc(C#N)cc1 (centres undefined)', 'no (0)');

[Q] Form field: z-score at least 0.2? Entry: COC(=O)[C@@]1(Cc2ccccc2N=[N+]=[N-])N=C(c2ccc(OCCCO)cc2)O[C@H]1c1ccccc1CN=[N+]=[N-]
[A] yes (1)

[Q] # bool: z-score of CC[C@@H]1C=C(C(=O)O)[C@H](c2ccccc2)N1S(=O)(=O)c1ccc([N+](=O)[O-])cc1 >= 0.2
[A] no (0)

[Q] Given the entry O=C(CS)NCCCCCNC(=O)[C@H]1C[C@H]2C(=O)N3CCC[C@H]3C(=O)N2[C@H]1c1ccc(O)cc1 , answer whether its z-score meets or surpasses 0.2.
[A] yes (1)

[Q] API: above_or_equal(metric=z-score, cutoff=0.2) for item CCCC=C(CCC)[C@@H](NS(=O)(=O)c1ccc(-c2ccccc2)cc1)c1ccc(C(=O)OC)cc1
[A] yes (1)

[Q] Given C=CCN(C(=O)C1N(c2ccc(CCO)cc2)C(=O)C2C(C(=O)O)C3C=CC21O3)C(C)(C)C (centres undefined) , state whether its z-score is at least 0.2.
[A] yes (1)

[Q] Test whether the compound C#CCNC(/C=C/c1ccccc1)CO (centres undefined) records z-score of 0.2 or higher.
[A] no (0)

[Q] Is reported z-score greater than or equal to 0.2 here: CO[C@H]1COC(=O)[C@@H](OCc2ccccc2)C=C[C@H](C)[C@@H](OC)COC(=O)[C@H](OCc2ccccc2)C=C[C@@H]1C
[A] yes (1)

[Q] Exam item: decide whether the reported z-score for CC(C)N1CC=CC23O[C@@H]4/C=C\CCCOC(=O)C4[C@H]2C(=O)N(CCO)[C@@H]3C1=O (some centres undefined) is at least 0.2.
[A] yes (1)

[Q] Item N#Cc1ccc(NN2C(C(O)CCc3ccccc3)C=CC3C(=O)N(c4ccccc4)C(=O)C32)cc1 (centres undefined) with z-score of 0.2 or above?
[A] yes (1)

[Q] State whether the measured z-score reaches 0.2, counting equality as reaching it, for COC(=O)C[C@H]1O[C@]2(C(=O)N(Cc3ccccc3)c3ccc(I)cc32)[C@@H](C)[C@@H]1[Si](C)(C)c1ccc(OC)cc1
[A] yes (1)

[Q] Item CC(C)NC(=O)[C@@]1(Cc2ccccc2I)c2ccccc2C(=O)N(C2CCCCC2)[C@H]1c1ccc(CO)cc1 with z-score of 0.2 or above?
[A] yes (1)

[Q] Determine whether this compound has z-score no lower than 0.2: CC1CC/C=C\[C@H]2OC34C=CCN(Cn5nnc6ccccc65)C(=O)[C@H]3N(C(C)CO)C(=O)[C@@H]4C2C(=O)O1 (some centres undefined)
[A] no (0)

[Q] Does the reported z-score for C[C@]1(C(=O)NCc2ccccc2)c2ccccc2C(=O)N(Cc2cc(C(F)(F)F)cc(C(F)(F)F)c2)[C@H]1c1ccc(CO)cc1 fall at or above the 0.2 mark?
[A] yes (1)

[Q] Assess whether reported z-score for Cc1cc(C)c(C(O)C2C=CC3C(=O)N(C)C(=O)C3N2N2CCCCC2)c(C)c1 (centres undefined) sits at 0.2 or higher.
[A] no (0)

[Q] State whether the measured z-score reaches 0.2, counting equality as reaching it, for COCC(=C=CC[C@H](O)c1ccc(OCCO)cc1)C[C@H](O)c1ccccn1
[A] no (0)

[Q] Please tell me: is the compound COC(=O)C(CC#Cc1ccc2c(c1)[C@]1(C(=O)N2)[C@H](C(=O)N2CCCCCCC2)[C@H]2C(=O)O[C@H](c3ccccc3)[C@H](c3ccccc3)N2[C@@H]1c1ccc(O)cc1)C(=O)OC at or over 0.2 in terms of z-score?
[A] yes (1)

---

tested on: Noggin (protein binding on small-molecule microarray); test: Noggin binders on small-molecule microarray, primary screen, biochemical, 635/667 nm fluorescence (AID 1095); settings: 635 nm fluorescence, higher = more signal;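 also: score merges 667 nm feature fluorescence with signal to noise over triplicate slides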
composite z-score of 1 or higher: 1 (yes). Under 1: 0 (no).

Reference set, count: 4
INSERT INTO measurements (molecule, assignedlabel) VALUES
  ('C=CC[C@@]12N=C(c3ccc(OCCCO)cc3)O[C@@H]1c1ccccc1CN(Cc1ccccc1)C2=O', '0 (no)'),
  ('C=CCC(OC(C)=O)[C@@H]1[C@@H](N(Cc2ccc(-c3ccccc3)cc2)C(=O)c2ccc(C)cc2)c2cc(OCCCO)ccc2N1C(=O)c1ccc(-c2ccccc2)cc1 (stereo not given in full)', '0 (no)'),
  ('COCCOC(=O)N1C(=O)[C@@]2(c3cc(C#CCC(C(=O)OC)C(=O)OC)ccc31)[C@H](c1ccccc1OCCO)N1[C@H](c3ccccc3)[C@H](c3ccccc3)OC(=O)[C@H]1[C@@H]2C(=O)N1CCCCCCC1', '1 (yes)'),
  ('CC[C@@H]1C=C(C(=O)O)[C@H](c2ccccc2)N1S(=O)(=O)c1ccc([N+](=O)[O-])cc1', '0 (no)');

Below: the item to evaluate.
[Q] # bool: composite z-score of CO[C@H]1COC(=O)[C@@H](Cc2ccccc2)NC(=O)[C@@H](C)COC(=O)CC=C[C@@H]1C >= 1
[A] 1 (yes)

---

Recorded composite z-score by entry
test system: Lefty1; assay: Lefty1 binders on small-molecule microarrays, primary screen, biochemical, small-molecule microarray, 635/667 nm fluorescence (AID 1139); details: small-molecule microarray binding, fluorescence 635/667; higher = more signal
Lab note: write the figure by itself, no unit.

INSERT INTO measurements (compound, result) VALUES
  ('C#CCCCON=C1C[C@@H](O)[C@@H](O)[C@@H]2[C@@H]3C(=O)N(Cc4ccc5c(c4)OCO5)C(=O)[C@@H]3CC[C@@H]12', 0.847),
  ('CO[C@H]1COC(=O)[C@H](C)NC(=O)CC=C[C@@H](C)[C@H](NS(=O)(=O)c2ccc(C)cc2)COC(=O)[C@@H](OCc2ccccc2)C=C[C@@H]1C', 1.02),
  ('C=C[C@H](OC)[C@@H](OC(=O)Nc1ccc(SC)cc1)c1ccc(OC)c(O)c1', -0.541);

[Q] Record lookup: for Lefty1, what composite z-score belongs to CN(C)CCCC[C@@H]1NC(=O)[C@@H]2C[C@H](C(=O)O)[C@H](c3ccc(O)cc3)N2C1=O ?
[A] 1.64

[Q] Fill in the recorded composite z-score for this compound, with Lefty1 as test system: C=CC[C@@]12N=C(c3ccc(OCCCO)cc3)O[C@@H]1c1ccccc1CN(Cc1ccccc1)C2=O
[A] 0.239

---

target: Luciferin 4-monooxygenase (Photinus pyralis); experiment: firefly luciferase enzyme inhibitors, primary screen, biochemical, luminescence, purified enzyme, 2006 set (AID 1141); conditions: SteadyGlo luminescence, 30 min, higher = more signal, called active from +8 up or from −8 down;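 also: cell-free assay with purified firefly luciferase at 100 ng per well in PBS; test concentration not given here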
propertyLabel: z-score
Could you keep your reply to the number by itself?

# example entries with known answers
INSERT INTO results (compound, result) VALUES
  ('C=CCC(OC(C)=O)[C@@H]1[C@@H](N(Cc2cccc3ccccc23)C(=O)c2ccc(C)cc2)c2cc(OCCCO)ccc2N1C(=O)c1ccc(-c2ccccc2)cc1 (stereo partly drawn)', -1.18),
  ('O=C1C2C=CC(C(O)C(c3ccccc3)c3ccccc3)N(Nc3ccc([N+](=O)[O-])cc3)C2C(=O)N1c1ccccc1 (stereo not drawn)', 1.66);

Please look at the following compound next.
[Q] I have this compound here, CC[C@H]1C2=C3C(CC[C@H]4C(OC)OC[C@](C)([C@@H]34)N(C(=O)OC(C)(C)C)C2)C(CO)C1CO (stereo partly drawn) , and I need its recorded z-score.
[A] 0.16
